Consider the following molecules; for each one, report its ED50.
System: phenylquinone writhing syndrome in mice
test.name: prevention of phenylquinone writhing (analgesic activity)
Assay type: in vivo
condition.summary: Mus musculus, sc, 10 min; subcutaneous; phenylquinone 2.5 mg/kg i.p.; episodes counted during 10 minutes; read-out: ED50 (prevention of phenylquinone writhing)
Counter-ions that a name gives are not always drawn.
Put down the number, then write its unit next to it.

Solved cases (5 shown):
- molecule: "Cl.c1ccc2c(c1)CCN2C1=NCCCC1 [Example 10]"
  result: "5.7 mg/kg"
- molecule: "c1ccc2c(c1)CCN2C1=NCCCCC1 [Example 11, hydrochloride]"
  result: "17.1 mg/kg"
- molecule: "CN=C(C)N1CCc2ccccc21.Cl [Example 3]"
  result: "15.8 mg/kg"
- molecule: "Cl.c1ccc2c(c1)CCN2C1=NCCN1 [Example 13]"
  result: "33.2 mg/kg"
- molecule: "CC1CCC(N2CCc3ccccc32)=N1 (centres unmarked) [Example 8, hydrochloride]"
  result: "13 mg/kg"

Look at each molecule and report its ED50.
1. CC(=O)c1ccc2c(c1)CCN2C1=NCCC1 [Example 17, 5-Acetyl-1-[2-(1-pyrrolinyl)]indoline]
2. CC(=O)c1ccc2c(c1)CCN2C1=NCCCCC1 [Example 18, hydrochloride]
3. CN=CN1CCc2ccccc21.Cl [Example 1]
4. c1ccc2c(c1)CCN2C1=NCCC1 [Example 7, hydrochloride]
5. c1ccc2c(c1)CCN2C1=NCCSC1 [Example 12, hydrochloride]
6. CN=CN1CCc2cc([N+](=O)[O-])ccc21.Cl [Example 19]

1: 7.7 mg/kg; 2: 16.2 mg/kg; 3: 21.8 mg/kg; 4: 3.85 mg/kg; 5: 11.3 mg/kg; 6: 10.3 mg/kg
